# assayName: Plasma protein binding by equilibrium dialysis, human plasma
# Assay type: in vitro ADME
# conditionInfo: K3EDTA control plasma, 37°C, read-out: plasma protein binding, bound (converted)
# Method: SD male rats were grouped into four groups: vehicle, 1mg/kg/day, 3mg/kg/day and 10mg/kg/day. Rats were treated with the designated dose by daily gavage. Acute plasma PK was conducted on day one and acute-on-chronic plasma PK was conducted on day 24. Pharmacokinetic assessment was conducted by collecting of blood at baseline (prior gavage), 0.25, 0.5, 1, 2, 4, 8, 12 and 24h post gavage. […] At the end of dialysis, the plasma and buffer level of IRX4204 were quantified by LC/MS/MS.
endpointName: fraction unbound at 1 ug/ml
Just the number, please, no unit after it.

What fraction unbound at 1 ug/ml value was documented for this molecule, CC(/C=C/[C@@H]1C[C@]1(C)c1ccc2c(c1)C(C)(C)CCC2(C)C)=C\C(=O)O ?
0.0064

====

# assayName: Plasma pharmacokinetics after oral gavage
# Format: in vivo
# conditionInfo: male, SD, rat, 1 mg/kg/day, Male, 1mg/kg/day gavage, Day 1
# Method: […] Rats were treated with the designated dose by daily gavage. Acute plasma PK was conducted on day one and acute-on-chronic plasma PK was conducted on day 24. […] At the end of dialysis, the plasma and buffer level of IRX4204 were quantified by LC/MS/MS. The LC/MS system was comprised of Waters Acquity Ultra Performance Liquid Chromatography (UPLC) coupled to a XEVO-TQS (Waters). The samples were analyzed by reverse-phase HPLC using a Waters Atlantis T3 column (150 × 2.1mm, 5um). […]
endpointName: Cmax (ng/mL)
Kindly provide the numeric value in ng/mL only, without the unit symbol.

What Cmax value was documented for this compound, CC(/C=C/[C@@H]1C[C@]1(C)c1ccc2c(c1)C(C)(C)CCC2(C)C)=C\C(=O)O ?
58.9

====

# assayName: Plasma pharmacokinetics after oral gavage
# Type: in vivo
# conditionInfo: female, SD, rat, 10 mg/kg/day, Female, 10 mg/kg/day gavage, Day 1
endpointName: Tmax (min)
Kindly provide the numeric value in min only, without the unit symbol.

What Tmax value was documented for this molecule, CC(/C=C/[C@@H]1C[C@]1(C)c1ccc2c(c1)C(C)(C)CCC2(C)C)=C\C(=O)O ?
30

The origin of these recorded values is paper PMC4884932.
